Field: inhibition. Provide a value for each of the molecules that follow.
- target-under-test: Coagulation factor XI (Homo sapiens) (UniProt P03951)
- Sequence (P03951 19-387 limits assumed): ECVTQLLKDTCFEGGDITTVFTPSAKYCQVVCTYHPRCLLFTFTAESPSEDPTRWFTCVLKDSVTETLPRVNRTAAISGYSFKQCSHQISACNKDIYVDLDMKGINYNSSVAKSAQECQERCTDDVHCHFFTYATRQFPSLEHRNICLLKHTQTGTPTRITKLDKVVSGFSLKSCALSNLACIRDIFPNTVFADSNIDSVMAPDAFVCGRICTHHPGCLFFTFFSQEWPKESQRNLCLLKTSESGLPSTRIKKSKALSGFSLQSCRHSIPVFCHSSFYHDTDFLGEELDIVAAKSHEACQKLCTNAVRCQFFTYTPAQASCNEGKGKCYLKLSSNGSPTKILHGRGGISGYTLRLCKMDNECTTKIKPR
- Sequence (P03951 388-625 limits assumed): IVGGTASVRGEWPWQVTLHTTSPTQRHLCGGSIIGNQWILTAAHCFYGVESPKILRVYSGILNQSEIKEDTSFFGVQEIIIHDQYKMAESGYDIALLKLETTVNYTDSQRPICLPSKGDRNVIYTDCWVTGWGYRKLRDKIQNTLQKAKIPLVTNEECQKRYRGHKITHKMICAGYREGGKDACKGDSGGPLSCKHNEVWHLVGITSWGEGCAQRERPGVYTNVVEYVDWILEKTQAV
- measurement-description: factor XIa enzyme inhibition, large library – biochemical, 1536-well, primary screen (AID 798);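 also: fluorescence of freed AMC excited at 355 nm; 0% = enzyme without compound and 100% = no enzyme blank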
- measurement-conditions: purified FXIa, Boc-Glu-Ala-Arg-AMC fluorogenic substrate; at 5 µM; hits give high values
Screen size: about 220,000 compounds; about 300 (0.14%) were called active. What follows is part of a selection rich in actives, with near analogues and random picks from the rest.
Give the value in % but do not write % after it.

The recorded inhibition for entry `CNc1ccc([N+](=O)[O-])cc1C(=O)O` equals -2.33

The recorded inhibition for entry `CCOC(=O)CNc1nc(Cl)nc(Nc2ccccc2)n1` equals -1.06

The recorded inhibition for entry `O=C(Nc1cccc(CCc2ccccn2)c1)c1ccc(Cl)cc1` equals 14.3

The recorded inhibition for entry `O=C(CNCCC1=CCCCC1)Nc1ccccc1N1CCCCCC1` equals -2.46

The recorded inhibition for entry O=C(N/N=C/c1cc2c(cc1Br)OCO2)C1COc2ccccc2O1 (stereo not given) equals -10.7

The recorded inhibition for entry `C/C=C(/C)C(=O)O[C@@H]1c2cc3c(c4c2[C@@]2(CO4)C(=O)C(OC)=C(OC)C=C2C[C@@H](C)[C@H]1C)OCO3` equals 0.96

The recorded inhibition for entry `Cc1ccccc1CN1C[C@@H]2C[C@@H](c3ccc4nsnc4c3)N3CCC[C@@]23C1=O` equals 2.82

The recorded inhibition for entry `CCOC(=O)COc1cc(OCC(=O)OCC)c2c(=O)cc(-c3ccccc3)oc2c1` equals -3.59

The recorded inhibition for entry `CCc1nc(C)cn1S(=O)(=O)c1cc([N+](=O)[O-])ccc1Cl` equals -5.64

The recorded inhibition for entry `CN1CCN(C(=O)CCc2ncc(C(F)(F)F)cc2Cl)CC1` equals 7.14

----------
Field: inhibition. Provide a value for each of the compounds that follow.
- target-under-test: Coagulation factor XI (Homo sapiens) (UniProt P03951)
- measurement-description: factor XIa enzyme inhibition, large library – biochemical, 1536-well, primary screen (AID 798);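 also: fluorescence of freed AMC excited at 355 nm; 0% = enzyme without compound and 100% = no enzyme blank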
- measurement-conditions: purified FXIa, Boc-Glu-Ala-Arg-AMC fluorogenic substrate; at 5 µM; hits give high values
Hit rate of the full screen: of about 220,000 compounds, about 300 (0.14%) were called active. Many of the other results were omitted from the sample, so actives are more common in it than they were.
Give the value in % but do not write % after it.

The recorded inhibition for entry `CCOc1ccc(S(=O)(=O)Nc2nccs2)cc1` equals 0.82

The recorded inhibition for entry `O=S(=O)(Nc1ccc2cn[nH]c2c1)c1ccccc1` equals -7.54

The recorded inhibition for entry `COc1cc2[nH]c(=O)n(Cc3ccc(C(=O)NC4CCN(Cc5ccccc5)CC4)cc3)c(=O)c2cc1OC` equals -5.4

The recorded inhibition for entry `COC(=O)Cc1[nH]n(-c2nc3ccccc3s2)c(=O)c1C(C)=Nc1ccc(OC)cc1` equals 2.75

The recorded inhibition for entry `COC(=O)c1ccc(S(=O)(=O)NCc2ccccc2)n1C` equals 13.2

The recorded inhibition for entry `CCCCCCCCn1c2c(c(=N)c3c1CCC3)CCCC2` equals 1.52

----------
- target-under-test: Coagulation factor XI (Homo sapiens)
- measurement-description: factor XIa enzyme inhibition, large library – biochemical, 1536-well, primary screen (AID 798);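 also: fluorescence of freed AMC excited at 355 nm; 0% = enzyme without compound and 100% = no enzyme blank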
- measurement-conditions: purified FXIa, Boc-Glu-Ala-Arg-AMC fluorogenic substrate; at 5 µM; hits give high values
Screen size: about 220,000 compounds; about 300 (0.14%) were called active. Shown is part of a subset that was picked to be rich in actives.
endpoint: inhibition

The recorded inhibition for entry `O=C(Nc1ccc(Cl)cc1)Nc1ccc(Oc2cccnc2)nc1` equals -6.3% (inactive)

The recorded inhibition for entry O=C(Nc1ccc(F)c([N+](=O)[O-])c1)C1CC(=O)N(Cc2ccccc2)C1 (centres undefined) equals -2.12% (inactive)

The recorded inhibition for entry CC(C)(C)CC(C)(C)NCC(O)COCCOc1ccc(Br)cc1 (centres undefined) equals 1.54% (inactive)

The recorded inhibition for entry `COc1ccc(OCc2n[nH]c(=S)n2N)cc1` equals -0.79% (inactive)
